// data source = ChEMBL document CHEMBL3217491

GI50 overview
- TEST_DETAILS: Growth inhibition of human LOXIMVI cells after 48 hrs by SRB assay
- Format: functional
- EXPERIMENTAL_CONTEXT: LOX IMVI
I only need the number, in nM, no unit after it.

COc1ccc(-c2nc3ncccn3c2/C=C/C(=O)c2cc(OC)c(OC)c(OC)c2)cc1; 1460

Entry `COc1ccc(-c2nc3ccccn3c2/C=C/C(=O)c2cc(OC)c(OC)c(OC)c2)cc1OC` needs its GI50 filled in; supply it. 2260

Entry `COc1ccc(C(=O)/C=C/c2c(C(F)(F)F)nc3ccccn23)cc1OC` needs its GI50 filled in; supply it. 950

Entry `COc1cc(C(=O)/C=C/c2c(-c3cccs3)nc3ccccn23)cc(OC)c1OC` needs its GI50 filled in; supply it. 1870

Entry `COc1cc(C(=O)/C=C/c2c(C(F)(F)F)nc3ccccn23)cc(OC)c1OC` needs its GI50 filled in; supply it. 1660

Entry `COc1cc(C(=O)/C=C/c2c(-c3ccc(F)cc3)nc3ncccn23)cc(OC)c1OC` needs its GI50 filled in; supply it. 1570

Entry `COc1ccc(-c2nc3ccccn3c2/C=C/C(=O)c2cc(OC)c(OC)c(OC)c2)cc1` needs its GI50 filled in; supply it. 6050

====

GI50 overview
- TEST_DETAILS: Growth inhibition of human SF539 cells after 48 hrs by SRB assay
- Format: functional
- EXPERIMENTAL_CONTEXT: SF-539, 48 h
I only need the number, in µM, no unit after it.

# annotated cases, reported GI50 shown
COc1ccc(-c2nc3ncccn3c2/C=C/C(=O)c2cc(OC)c(OC)c(OC)c2)cc1; 1.36
COc1ccc(C(=O)/C=C/c2c(C(F)(F)F)nc3ccccn23)cc1OC; 1.65

Entry `COc1cc(C(=O)/C=C/c2c(-c3cccs3)nc3ccccn23)cc(OC)c1OC` needs its GI50 filled in; supply it. 1.87

Entry `COc1cc(C(=O)/C=C/c2c(C(F)(F)F)nc3ccccn23)cc(OC)c1OC` needs its GI50 filled in; supply it. 1.63

====

GI50 overview
- Test system: MDA-MB-468
- TEST_DETAILS: Growth inhibition of human MDA-MB-468 cells after 48 hrs by SRB assay
- Type: functional
- EXPERIMENTAL_CONTEXT: MDA-MB-468, 48 h
I only need the number, in nM, no unit after it.

# annotated cases, reported GI50 shown
COc1ccc(-c2nc3ccccn3c2/C=C/C(=O)c2cc(OC)c(OC)c(OC)c2)cc1OC; 2280
COc1ccc(C(=O)/C=C/c2c(C(F)(F)F)nc3ccccn23)cc1OC; 1900

From here, focus on the item given below.
Report the value of GI50 obtained on MDA-MB-468 for `COc1cc(C(=O)/C=C/c2c(C(F)(F)F)nc3ccccn23)cc(OC)c1OC` . 2120

====

- System: NCI-H226
- TEST_DETAILS: Growth inhibition of human NCI-H226 cells after 48 hrs by SRB assay
- Type: functional
- EXPERIMENTAL_CONTEXT: NCI-H226, 48 h
Threshold 3 µM. GI50 below it: TRUE. GI50 at it or above: FALSE.

COc1ccc(-c2nc3ccccn3c2/C=C/C(=O)c2cc(OC)c(OC)c(OC)c2)cc1OC; FALSE

Does the reported GI50 of the following compound sit strictly below 3 µM? `COc1ccc(C(=O)/C=C/c2c(C(F)(F)F)nc3ccccn23)cc1OC` FALSE

Does the reported GI50 of the following compound sit strictly below 3 µM? `COc1cc(C(=O)/C=C/c2c(-c3cccs3)nc3ccccn23)cc(OC)c1OC` TRUE

Does the reported GI50 of the following compound sit strictly below 3 µM? `COc1ccc(-c2nc3ccccn3c2/C=C/C(=O)c2cc(OC)c(OC)c(OC)c2)cc1` FALSE

Does the reported GI50 of the following compound sit strictly below 3 µM? `COc1ccc(-c2nc3ncccn3c2/C=C/C(=O)c2cc(OC)c(OC)c(OC)c2)cc1` TRUE

Does the reported GI50 of the following compound sit strictly below 3 µM? `COc1cc(C(=O)/C=C/c2c(C(F)(F)F)nc3ccccn23)cc(OC)c1OC` FALSE
